TESTED_TARGET: HLA-B*57:01
EXPERIMENT: IEDB peptide-MHC binding, purified MHC/direct/fluorescence; filed as Kd, often an IC50 or EC50 that approximates it; bounds were set here for any values at or beyond the usual limits of such assays
RECORDED_CONDITIONS: source organism: Entamoeba histolytica HM-1:IMSS
READOUT_NAME: Kd

Ask: Provide the documented Kd with HLA-B*57:01 as the system for IESNPLFPV
Result: ≥ 20 µM

###

Documented pKd across a set of sequences
TESTED_TARGET: HLA-A*03:01
EXPERIMENT: IEDB peptide-MHC binding, purified MHC/competitive/radioactivity; filed as Kd, often an IC50 or EC50 that approximates it; bounds were set here for any values at or beyond the usual limits of such assays
RECORDED_CONDITIONS: source organism: Mammarenavirus guanaritoense
Field pKd (float): negative decimal logarithm of the concentration in molar.

RESIDUE_SEQUENCE | READOUT_NAME | REPORTED_MEASUREMENT
LSYVIGLLPH | pKd | 5.65

Ask: What pKd value was documented for this sequence, TNFESFTVK ?
Result: 6.44

###

TESTED_TARGET: HLA-C*07:02
EXPERIMENT: IEDB peptide-MHC binding, purified MHC/direct/fluorescence; filed as Kd, often an IC50 or EC50 that approximates it; bounds were set here for any values at or beyond the usual limits of such assays
RECORDED_CONDITIONS: source organism: Escherichia coli HS
READOUT_NAME: Kd

Ask: What Kd value was documented for this sequence, MMWATAQAL ?
Result: 572 nM

###

TESTED_TARGET: HLA-B*07:02
EXPERIMENT: IEDB peptide-MHC binding, purified MHC/competitive/fluorescence; filed as Kd, often an IC50 or EC50 that approximates it; bounds were set here for any values at or beyond the usual limits of such assays
RECORDED_CONDITIONS: source organism: Corynebacterium glutamicum ATCC 13032
pKd: −log10 of the molar value.
READOUT_NAME: pKd

Ask: What pKd value was documented for this sequence, MSSAAHLLY ?
Result: ≤ 4.70

###

TESTED_TARGET: HLA-B*40:01
EXPERIMENT: IEDB peptide-MHC binding, purified MHC/competitive/radioactivity; filed as Kd, often an IC50 or EC50 that approximates it; bounds were set here for any values at or beyond the usual limits of such assays
RECORDED_CONDITIONS: source organism: Dengue virus 4 Dominica/814669/1981
READOUT_NAME: pKd
Field pKd (float): negative decimal logarithm of the concentration in molar.

Ask: What pKd value was documented for this sequence, MELIDGISL ?
Result: 8.64

###

TESTED_TARGET: HLA-A*30:02
EXPERIMENT: IEDB peptide-MHC binding, purified MHC/competitive/radioactivity; filed as Kd, often an IC50 or EC50 that approximates it; bounds were set here for any values at or beyond the usual limits of such assays
RECORDED_CONDITIONS: source organism: Mammarenavirus guanaritoense
READOUT_NAME: Kd

Ask: What Kd value was documented for this sequence, VPDIPELSY ?
Result: ≥ 25.3 µM

###

Documented Kd across a set of sequences
TESTED_TARGET: HLA-B*58:01
EXPERIMENT: IEDB peptide-MHC binding, purified MHC/direct/fluorescence; filed as Kd, often an IC50 or EC50 that approximates it; bounds were set here for any values at or beyond the usual limits of such assays
RECORDED_CONDITIONS: source organism: Mycobacterium tuberculosis

RESIDUE_SEQUENCE | Kd
RPKPDYSAM | ≥ 20 µM
RPRVAQLTF | ≥ 20 µM

Pending sequence:
Ask: What Kd value was documented for this sequence, KPKLARGEL ?
Result: ≥ 20 µM
